B1: MFF (parent)
chain: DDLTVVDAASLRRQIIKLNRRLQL

- Variants of: B1
- Assay Procedure: protein stability index of a GFP-peptide fusion (GPS, HEK-293T) (PSI 1-6); higher = more stable;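 further: lentivirally expressed fusions sorted by FACS into six bins by GFP to DsRed ratio, PSI derived from sequencing read proportions per bin multiplied by bin number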
- Conditions: c terminus: a fixed tail appended
Would you mind telling me the reported protein stability index of each entry?
Answers are plain numbers.

Worked cases, protein stability index given:
Polymer Sequence	protein stability index
DDLTVVDAASLRRQIIKGNRRLQL [L18G]	2.48
DDLTVVDKASLRRQIIKLNRRLQL [A8K]	3.29
DDLTVVDAASLRRQIIKNNRRLQL [L18N]	3.39
DDLTVVDAASARRQIIKLNRRLQL [L11A]	2.33

Could you tell me protein stability index for each of these variants? They are listed below.
1. EDLTVVDAASLRRQIIKLNRRLQL [D1E]
2. DDLTVVDAASLRRQIIKLNKRLQL [R20K]
3. DDLTVVDAASLRRQIIKVNRRLQL [L18V]
4. DDLTVVDAASLRRQIIKLNRFLQL [R21F]

[1.67, 1.02, 1.95, 2.33]

Kindly give each listed record's protein stability index.
1. DDLTVVDAASLRRQIIKTNRRLQL [L18T]
2. DDLTVVDAASLRRQIIKINRRLQL [L18I]

1: 2.89; 2: 3.42

Hi! Can you tell me protein stability index for each of these variants?
1. DDLTVVDAASLRREIIKLNRRLQL [Q14E]
2. DDLTVVDAGSLRRQIIKLNRRLQL [A9G]
3. DDLTVVDDASLRRQIIKLNRRLQL [A8D]
4. DDLTVVDAASLMRQIIKLNRRLQL [R12M]

[1.78, 2.11, 2.8, 1.64]

Quick batch: protein stability index for everything below.
1. DDLTVVDAASLTRQIIKLNRRLQL [R12T]
2. LDLTVVDAASLRRQIIKLNRRLQL [D1L]
3. DDLTVVDAASLRRQIIKLNRRRQL [L22R]
4. DDLTCVDAASLRRQIIKLNRRLQL [V5C]

[1.73, 1.61, 3.01, 1.72]

// each variant listed below needs its protein stability index
1. DDLTVVDAASLRRQIIKLNRQLQL [R21Q]
2. DDLTVVDAASLRRCIIKLNRRLQL [Q14C]

1: 1.84; 2: 2.27

Dear reader, for each entry below, please note its protein stability index.
1. DDLTVVDAASLRRQIIKLNRRLQA [L24A]
2. DDLTVVDASSLRRQIIKLNRRLQL [A9S]
3. DDLTVVDAASLRRQIIKLNRRLML [Q23M]

1. 2.29
2. 2.2
3. 2.43

List reported protein stability index for each of these variants:
1. QDLTVVDAASLRRQIIKLNRRLQL [D1Q]
2. DDLTVVDAASLRRQIIKLNRRLQN [L24N]
3. DDLTRVDAASLRRQIIKLNRRLQL [V5R]
4. DDLTVVDAASLRSQIIKLNRRLQL [R13S]
5. DDMTVVDAASLRRQIIKLNRRLQL [L3M]
6. DDLTVVDAASLRRHIIKLNRRLQL [Q14H]
7. DDLTVVDAASKRRQIIKLNRRLQL [L11K]

1. 3.2
2. 2.35
3. 1.7
4. 2.39
5. 3.06
6. 1.57
7. 3.28

Okay, here is my list. What is protein stability index for each of these?
1. DDLTVVDAASLRQQIIKLNRRLQL [R13Q]
2. DDLTVVDAASLRRQIIKLNRRQQL [L22Q]
3. DDLTVVDAASLRRQIIKLNRGLQL [R21G]
4. DDLTVVDAASLPRQIIKLNRRLQL [R12P]

1. 2.06
2. 3.21
3. 1.84
4. 2.51

Values were extracted from the supplement of paper PMC10567573.
